Items are presented alongside their recorded pest or weed control at 0.2 µg/cm2, 0.2 µg/cm2.
# System: Ctenocephalides felis
# TEST DESCRIPTION: In vitro contact test with fleas
# CONDITION LABEL: dose 0.2 μg/cm^2, dead or moribund fleas after 48 h, read-out: insecticidal activity
All answers are understood in %, so give the number only.

Some entries whose results are on file:
| COMPOUND | OBSERVED RESULT |
| --- | --- |
| O=C(Nc1cccc(C(=O)Nc2c(I)cc(C(F)(C(F)(F)F)C(F)(F)F)cc2S(=O)(=O)C(F)(F)F)c1F)c1ccc(F)cc1 | 95 |
| Cc1ccc(C(=O)N(C)c2cccc(C(=O)Nc3c(I)cc(C(F)(C(F)(F)F)C(F)(F)F)cc3C(F)(F)F)c2F)cc1 | 95 |
| O=C(Nc1cccc(C(=O)Nc2c(I)cc(C(F)(C(F)(F)F)C(F)(F)F)cc2OC(F)(F)F)c1F)c1ccc(F)c(F)c1 | 95 |
| O=C(Nc1cccc(C(=O)Nc2c(I)cc(C(F)(C(F)(F)F)C(F)(F)C(F)(F)F)cc2C(F)(F)F)c1F)c1ccc(F)c(F)c1 (stereo not shown) | 95 |
| CN(C(=O)c1ccc(C(F)(F)F)nc1)c1cccc(C(=O)Nc2c(Br)cc(C(F)(C(F)(F)F)C(F)(F)F)cc2OC(F)(F)F)c1F | 95 |

Entry "CN(C(=O)c1ccc(C#N)cc1)c1cccc(C(=O)Nc2c(Br)cc(C(F)(C(F)(F)F)C(F)(F)F)cc2OC(F)(F)F)c1" , tested on Ctenocephalides felis, has a reported pest or weed control at 0.2 µg/cm2, 0.2 µg/cm2 of 95

Entry "CN(C(=O)c1ccc(F)cc1)c1cccc(C(=O)Nc2c(I)cc(C(F)(C(F)(F)F)C(F)(F)F)cc2OC(F)F)c1F" , tested on Ctenocephalides felis, has a reported pest or weed control at 0.2 µg/cm2, 0.2 µg/cm2 of 95

Entry "O=C(Nc1cccc(C(=O)Nc2c(I)cc(C(F)(C(F)(F)F)C(F)(F)F)cc2OC(F)(F)F)c1F)c1ccc(F)cc1" , tested on Ctenocephalides felis, has a reported pest or weed control at 0.2 µg/cm2, 0.2 µg/cm2 of 95

Entry "CN(C(=O)c1ccc(C(F)(F)F)nc1)c1cccc(C(=O)Nc2c(I)cc(C(F)(C(F)(F)F)C(F)(F)F)cc2OC(F)F)c1F" , tested on Ctenocephalides felis, has a reported pest or weed control at 0.2 µg/cm2, 0.2 µg/cm2 of 95

Entry O=C(Nc1cccc(C(=O)Nc2c(Br)cc(C(F)(C(F)(F)F)C(F)(F)C(F)(F)F)cc2OC(F)(F)F)c1F)c1ccc(F)cc1 (stereo not shown) , tested on Ctenocephalides felis, has a reported pest or weed control at 0.2 µg/cm2, 0.2 µg/cm2 of 95

Entry "CN(C(=O)c1ccc(F)cc1)c1cc(C(=O)Nc2c(Cl)cc(C(F)(C(F)(F)F)C(F)(F)F)cc2C(F)(F)F)ccc1F" , tested on Ctenocephalides felis, has a reported pest or weed control at 0.2 µg/cm2, 0.2 µg/cm2 of 95

Entry CN(C(=O)c1ccc(F)cc1)c1cccc(C(=O)Nc2c(I)cc(C(F)(C(F)(F)F)C(F)(F)F)cc2[S+]([O-])C(F)(F)F)c1F (stereo not shown) , tested on Ctenocephalides felis, has a reported pest or weed control at 0.2 µg/cm2, 0.2 µg/cm2 of 95

Entry "CN(C(=O)c1ccc(C#N)cc1F)c1cccc(C(=O)Nc2c(Br)cc(C(F)(C(F)(F)F)C(F)(F)F)cc2C(F)(F)F)c1" , tested on Ctenocephalides felis, has a reported pest or weed control at 0.2 µg/cm2, 0.2 µg/cm2 of 95
